Data provenance: patent US7572765B2

Reported pEC50 is given for each of the following compounds.
Target: human P1R (Homo sapiens)
Construct: expressed in transfected cells; host or cells: HKRK-B28 (porcine kidney LLC-PK1, stably transfected)
Sequence (Q03431 27-593): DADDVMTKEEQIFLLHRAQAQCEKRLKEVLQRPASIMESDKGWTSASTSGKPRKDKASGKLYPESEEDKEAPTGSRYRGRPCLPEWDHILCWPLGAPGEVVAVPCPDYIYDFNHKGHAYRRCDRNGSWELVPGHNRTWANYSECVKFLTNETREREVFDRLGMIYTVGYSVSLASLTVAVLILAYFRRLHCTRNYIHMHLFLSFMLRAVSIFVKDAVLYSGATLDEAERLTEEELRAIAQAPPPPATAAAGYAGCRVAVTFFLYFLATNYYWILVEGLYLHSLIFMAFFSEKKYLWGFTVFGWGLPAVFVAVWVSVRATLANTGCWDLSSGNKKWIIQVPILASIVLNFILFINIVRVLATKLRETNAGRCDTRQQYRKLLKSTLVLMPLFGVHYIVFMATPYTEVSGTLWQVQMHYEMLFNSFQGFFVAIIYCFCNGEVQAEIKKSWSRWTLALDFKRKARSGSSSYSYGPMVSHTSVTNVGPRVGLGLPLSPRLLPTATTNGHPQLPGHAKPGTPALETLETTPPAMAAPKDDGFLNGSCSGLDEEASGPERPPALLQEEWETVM
Assay: cAMP stimulation in HKRK-B28 cells
Type: cell-based
pEC50: −log10 of the molar value. Square brackets hold non-standard residues; d marks the D form. Peptide text beside a SMILES is read from it. hArg = N=C(N)NCCCC[C@H](N)C(=O)O; Aib = CC(C)(N)C(=O)O
QUANTITY_NAME: pEC50

>>> test_value("CC[C@H](C)[C@H](NC(=O)[C@H](CCC(=O)O)NC(=O)C(C)(C)NC(=O)[C@@H](NC(=O)C(C)(C)N)C(C)C)C(=O)N[C@@H](CCC(N)=O)C(=O)N[C@@H](CC(C)C)C(=O)N[C@@H](CCSC)C(=O)N[C@@H](Cc1c[nH]cn1)C(=O)N[C@@H](CCC(N)=O)C(N)=O [[Aib^1,3,M]PTH(1-10), [Aib^1,3,Gln^10]PTH(1-10)] (H-[Aib]V[Aib]EIQLMHQ-NH2)")
4.80
>>> test_value("CC[C@H](C)[C@H](NC(=O)[C@H](CCC(=O)O)NC(=O)[C@H](C)NC(=O)[C@@H](NC(=O)[C@H](C)N)C(C)C)C(=O)N[C@@H](CCC(N)=O)C(=O)N[C@@H](CC(C)C)C(=O)N[C@@H](CCSC)C(=O)N[C@@H](Cc1cnc[nH]1)C(=O)N[C@@H](CCC(N)=O)C(=O)N[C@@H](CCCCN=C(N)N)C(=O)N[C@@H](C)C(=O)N[C@@H](CCCCN)C(=O)N[C@@H](Cc1c[nH]c2ccccc12)C(N)=O [[M]PTH(1-14), reference compound] (H-AVAEIQLMHQ[hArg]AKW-NH2)")
7.00
>>> test_value("CSCC[C@H](NC(=O)[C@H](CC(C)C)NC(=O)[C@H](CCC(N)=O)NC(=O)C(C)(C)NC(=O)[C@H](CCC(=O)O)NC(=O)[C@H](C)NC(=O)[C@@H](NC(=O)[C@H](C)N)C(C)C)C(=O)N[C@@H](Cc1c[nH]cn1)C(=O)N[C@@H](CCC(N)=O)C(=O)N[C@@H](CCCCNC(=N)N)C(=O)N[C@@H](C)C(=O)N[C@@H](CCCCN)C(=O)N[C@@H](Cc1c[nH]c2ccccc12)C(N)=O [Aib-5] (H-AVAE[Aib]QLMHQ[hArg]AKW-NH2)")
4.18
